Just for reference, patent US20240252527A9 is where these values come from.

# System: 229E
# test method notes: 229E MRC5 CPE assay (cytopathic experiment)
# Format: cell-based, coronavirus 229E (HCoV-229E)
# settings: Human coronavirus 229E, MRC5, 72 h, read-out: 229E MRC5 CPE assay (μM) EC90
Property: EC90; scope: individual compounds
observation type: EC90

compound="CCC(CC)COC(=O)[C@H](C)NP(=O)(OCOC(=O)C(C)C)OC[C@H]1O[C@@](C#N)(c2ccc3c(N)ncnn23)[C@H](O)[C@@H]1O (stereo partly drawn)" test_value="> 0.5 µM"
compound=CCCC(CCC)C(=O)OCO[P@@](=O)(N[C@@H](C)C(=O)OCC(CC)CC)OC[C@H]1O[C@@](C#N)(c2ccc3c(N)ncnn23)[C@H](O)[C@@H]1O test_value="< 0.1 µM"
compound="CCC(CC)COC(=O)[C@H](C)N[P@@](=O)(OCCN(CC)CCCC(C)Nc1ccnc2cc(Cl)ccc12)OC[C@H]1O[C@@](C#N)(c2ccc3c(N)ncnn23)[C@H](O)[C@@H]1O (stereo partly drawn)" test_value="> 0.5 µM"
compound=N#C[C@@]1(c2ccc3c(N)ncnn23)O[C@@H]2CO[P@](=O)(OCOC(=O)C3CCCC3)O[C@H]2[C@H]1O test_value="> 0.5 µM"
compound=N#C[C@@]1(c2ccc3c(N)ncnn23)O[C@@H]2CO[P@@](=O)(OCOC(=O)C3CCCC3)O[C@H]2[C@H]1O test_value="> 0.5 µM"
compound="CC(C)OC(=O)C(C)(C)NP(=O)(OCOC(=O)c1cccnc1)OC[C@H]1O[C@@](C#N)(c2ccc3c(N)ncnn23)[C@H](O)[C@@H]1O (stereo partly drawn)" test_value="> 0.5 µM"
